biological target: HLA-A*24 (human); experiment: UV peptide-exchange ELISA, yield grade
OBSERVATION_TYPE: peptide exchange yield

Recorded peptide exchange yield, per entry:
- BINDER: "VYRDETGELF [… (SEQ ID NO: 226)]"
  peptide exchange yield: "50 to 75%"
- BINDER: "TYTQDFNKF [… (SEQ ID NO: 208)]"
  peptide exchange yield: "50 to 75%"
- BINDER: "IYATEAHVF [… (SEQ ID NO: 201)]"
  peptide exchange yield: "50 to 75%"

IN: Entry RYPDNLKHLYL [… (SEQ ID NO: 280)] has what peptide exchange yield?
OUT: > 75%

IN: Entry VYGFQWRHF [… (SEQ ID NO: 276)] has what peptide exchange yield?
OUT: > 75%

IN: Entry LYLDIINLF [… (SEQ ID NO: 181)] has what peptide exchange yield?
OUT: > 75%

IN: Entry YYVESGKLF [… (SEQ ID NO: 166)] has what peptide exchange yield?
OUT: > 75%

IN: Entry FYSRLLQKF [… (SEQ ID NO: 203)] has what peptide exchange yield?
OUT: 50 to 75%

IN: Entry IYQLDTASI [… (SEQ ID NO: 182)] has what peptide exchange yield?
OUT: 50 to 75%

IN: Entry LYLKLWNLI [… (SEQ ID NO: 214)] has what peptide exchange yield?
OUT: 50 to 75%

IN: Entry IFLDYEAGTLSF [… (SEQ ID NO: 227)] has what peptide exchange yield?
OUT: > 75%

IN: Entry VFKASKITF [… (SEQ ID NO: 191)] has what peptide exchange yield?
OUT: 50 to 75%

IN: Entry AYTLIAPNI [… (SEQ ID NO: 169)] has what peptide exchange yield?
OUT: 50 to 75%

IN: Entry SYALLTYMI [… (SEQ ID NO: 192)] has what peptide exchange yield?
OUT: > 75%

IN: Entry TYGDAGLTYTF [… (SEQ ID NO: 283)] has what peptide exchange yield?
OUT: 50 to 75%

IN: Entry DYLKGLASF [… (SEQ ID NO: 163)] has what peptide exchange yield?
OUT: > 75%

Provenance of the data: patent US20170165339A1
